Each entry below carries its recorded pKd.
molecular target: T1, his-tagged ROR2 extracellular domain (ROR2-ECD, G&P Biosciences, cat. no. FCL0192) (human, UniProt Q01974 34-403); experiment: BLI (Octet), antibody on anti-human IgG Fc sensor, ROR2-ECD 1.56-100 nM as analyte
T1 construct: Bought protein; also called human ROR2-ECD; recombinant human ROR2-ECD; not shown: his tag
T1 sequence (Q01974 34-403): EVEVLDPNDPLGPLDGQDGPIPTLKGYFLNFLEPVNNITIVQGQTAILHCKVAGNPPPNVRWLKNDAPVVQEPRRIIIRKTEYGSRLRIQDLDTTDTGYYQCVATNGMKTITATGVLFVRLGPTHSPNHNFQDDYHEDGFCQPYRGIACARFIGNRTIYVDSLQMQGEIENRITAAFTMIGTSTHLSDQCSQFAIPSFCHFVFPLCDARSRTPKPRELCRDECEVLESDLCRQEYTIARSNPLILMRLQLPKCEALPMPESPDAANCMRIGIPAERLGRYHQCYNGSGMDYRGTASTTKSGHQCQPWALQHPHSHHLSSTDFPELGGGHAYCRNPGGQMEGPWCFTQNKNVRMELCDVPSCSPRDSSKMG
# pKd: negative log10 of molar concentration; output just the value

# count of solved cases: 3
Qu. Query (binder): IgG1-ROR2-A-HC7LC2-FEAR (antibody, V domains shown, Humanized variant) VH: EVQLLESGGGLVQPGGSLRLSCAASGFSLSSYSMSWVRQAPGKGLEWIGVIYVNSKTWYADSVKGRFTISKDNSKNTVYLQMNSLRAEDTATYYCARGDAGYTTNSWLWGQGTLVTVSS VL: AFELTQSPSSLSASVGDRVTITCQASESIDNYLSWYQQKPGKAPKLLIYQAFKLASGVPSRFRGSGSGTDFTLTISSLQSEDFATYYCQSYSGISTTAFGGGTEVVIK ; field requested: pKd
Ans. 8.33

Qu. Also, chIgG1-ROR2-A-FEAR (antibody, V domains shown, Full-length IgG1 with L234F, L235E, D265A, K409R; also called chIgG1-ROR2-A (with the Fc mutations FEAR)) VH: QSVEESGGRLVTPGTPLTLTCTVSGFSLSSYSMSWVRQAPGKGLEWIGVIYVNSKTWYANWAKGRFTISKTSTTVDLKITSPTTEDTATYFCARGDAGYTTNSWLWGPGTLVTVSS VL: AFELTQTPASVSEPVGGTVTIKCQASESIDNYCSWYQQKPGQPPKLLIYQAFKLASGVPSRFRGSGSGTQFTLTISDLESDDAATYYCQSYSGISTTAFGGGTEVVVKR please.
Ans. 8.96

Qu. IgG1-ROR2-A-HC2LC1-FEAR (antibody, V domains shown, Humanized variant) VH: QSVLESGGGLVQPGGSLRLSCTVSGFSLSSYSMSWVRQAPGKGLEWIGVIYVNSKTWYANWAKGRFTISKTSTTVYLQMNSLRAEDTATYFCARGDAGYTTNSWLWGQGTLVTVSS VL: AFELTQSPSSLSASVGDRVTITCQASESIDNYCSWYQQKPGKAPKLLIYQAFKLASGVPSRFRGSGSGTDFTLTISSLQSEDFATYYCQSYSGISTTAFGGGTEVVIK ?
Ans. 8.77

Next up:
Qu. I would be grateful if you could share the reported pKd for IgG1-ROR2-A-HC1LC2-FEAR (antibody, V domains shown, Humanized variant) VH: QSVLESGGGLVQPGGSLRLSCTVSGFSLSSYSMSWVRQAPGKGLEWIGVIYVNSKTWYANWAKGRFTISKTSTTVDLKITSPTAEDTATYFCARGDAGYTTNSWLWGQGTLVTVSS VL: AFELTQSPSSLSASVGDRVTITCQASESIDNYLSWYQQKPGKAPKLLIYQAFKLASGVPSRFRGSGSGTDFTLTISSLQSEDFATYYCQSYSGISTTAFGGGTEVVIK .
Ans. 8.72
